Biological target: UniProt:A0A7N9DBT9
Sequence (A0A7N9DBT9 entry or part of it): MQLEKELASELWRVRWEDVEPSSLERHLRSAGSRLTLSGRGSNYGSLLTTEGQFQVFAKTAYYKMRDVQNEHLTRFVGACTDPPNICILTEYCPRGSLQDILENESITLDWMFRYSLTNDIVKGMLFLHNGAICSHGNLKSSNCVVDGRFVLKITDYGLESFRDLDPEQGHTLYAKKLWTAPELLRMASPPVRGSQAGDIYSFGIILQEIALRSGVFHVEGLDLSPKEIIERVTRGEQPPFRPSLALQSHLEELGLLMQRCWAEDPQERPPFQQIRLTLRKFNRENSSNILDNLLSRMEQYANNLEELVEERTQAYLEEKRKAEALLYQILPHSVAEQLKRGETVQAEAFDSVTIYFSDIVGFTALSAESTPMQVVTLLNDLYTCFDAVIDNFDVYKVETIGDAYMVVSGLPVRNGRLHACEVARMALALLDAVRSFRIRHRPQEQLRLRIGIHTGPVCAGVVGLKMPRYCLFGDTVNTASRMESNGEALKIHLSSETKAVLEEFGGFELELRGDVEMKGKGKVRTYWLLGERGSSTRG
Test: Cellular cGMP production assay, monkey NPR1 expressing CHO-K1 cells (CisBio HTRF)
Format: cell-based
Description: Cellular cGMP is a major second messenger that mediates cell activities and is synthesized by activated NPR1 triggered by binding of the natural ligand ANP. […] The assay was performed according to manufacturer's instructions with minor deviations. […] The readout was performed using an Envision plate reader (PerkinElmer) with an excitation wavelength of 317 nm and an emission wavelength of 665 nm. cGMP concentration (Delta F [° %]) was calculated according to the following formulae: […]
quantity-measured: AC50 (nM)
Report as a plain number; the unit nM is understood.

Record excerpt, results attached:
molecule | unit-label | result-number
CC[C@@H](N(C)c1nc2c(c(N[C@@H](CN3C4CCCC3CC4)c3cnn(C)c3)n1)C[C@H](c1ccc(F)cc1)CC2)C12CC(C(=O)O)(C1)C2 [Compound 25] | nM | 108
CN(c1nc2c(c(N[C@@H](CN3C4CCCC3CCC4)c3cnn(C)c3)n1)C[C@H](c1ccccc1)CC2)[C@H](C1CC1)[C@H]1CC[C@H](C(=O)O)CC1 [Compound 133] | nM | 647

Query molecule follows.
# get_value(readout='AC50', item= CC[C@@H](Nc1nc2c(c(N[C@@H](CN3C4CCCC3CCC4)c3cnn(C(C)C)c3)n1)C[C@H](c1ccccc1)CC2)[C@H]1CC[C@H](C(=O)O)CC1 [Compound 132] )
620
